RUN DESCRIPTION: Competitive binding of ^241Am in rat plasma
CONDITION CONTEXT: 3 nM ^241Am nitrate, 37°C
This listing pairs compounds with measured EC50.
OUTCOME MEASURE: EC50 (µM)

[
  {
    "COMPOUND": "CCOC(=O)CN(CCN(CCN(CC(=O)O)CC(=O)O)CC(=O)O)CC(=O)O",
    "REPORTED MEASUREMENT": 25.5
  },
  {
    "COMPOUND": "CCOC(=O)CN(CCN(CCN(CC(=O)O)CC(=O)OCC)CC(=O)O)CC(=O)O",
    "REPORTED MEASUREMENT": 46.2
  },
  {
    "COMPOUND": "O=C(O)CN(CCN(CC(=O)O)CC(=O)O)CCN(CC(=O)O)CC(=O)O [DTPA, Diethylenetriaminepentaacetic acid, reference compound]",
    "REPORTED MEASUREMENT": 5.36
  }
]

###

RUN DESCRIPTION: Competitive binding of ^241Am in human plasma
CONDITION CONTEXT: human plasma, 3 nM ^241Am nitrate, 37°C
OUTCOME MEASURE: EC50 (µM)

[
  {
    "MOLECULE": "CCOC(=O)CN(CCN(CCN(CC(=O)O)CC(=O)O)CC(=O)O)CC(=O)O",
    "OUTCOME MEASURE": "EC50",
    "REPORTED MEASUREMENT": 5.26
  },
  {
    "MOLECULE": "CCOC(=O)CN(CCN(CCN(CC(=O)O)CC(=O)OCC)CC(=O)O)CC(=O)O",
    "OUTCOME MEASURE": "EC50",
    "REPORTED MEASUREMENT": 8.87
  },
  {
    "MOLECULE": "O=C(O)CN(CCN(CC(=O)O)CC(=O)O)CCN(CC(=O)O)CC(=O)O [DTPA, Diethylenetriaminepentaacetic acid, reference compound]",
    "OUTCOME MEASURE": "EC50",
    "REPORTED MEASUREMENT": 2.82
  }
]

###

RUN DESCRIPTION: Competitive binding of ^241Am in beagle plasma
CONDITION CONTEXT: 3 nM ^241Am nitrate, 37°C
pEC50: −log10 of the molar value.

[
  {
    "COMPOUND": "CCOC(=O)CN(CCN(CCN(CC(=O)O)CC(=O)OCC)CC(=O)O)CC(=O)O [C2E2, DTPA diethyl ester]",
    "pEC50": 5.31
  },
  {
    "COMPOUND": "CCOC(=O)CN(CCN(CCN(CC(=O)O)CC(=O)O)CC(=O)O)CC(=O)O [C2E1, monoethyl ester of DTPA]",
    "pEC50": 5.69
  },
  {
    "COMPOUND": "O=C(O)CN(CCN(CC(=O)O)CC(=O)O)CCN(CC(=O)O)CC(=O)O [DTPA, Diethylenetriaminepentaacetic acid, reference compound]",
    "pEC50": 5.97
  }
]
